EXPERIMENT_SUMMARY: in vitro
CONDITION_DETAILS: human, Caco-2, pH 7.4
VALUE_KIND: Papp A→B at 90 min, 10 μM

>>> value("Clc1cccnc1[C@@H]1CCC[C@H](c2cn3c(N4CCNC5(CC5)C4)cccc3n2)N1 [Compound I-166]")
"10 to 30 ×10⁻⁶ cm/s"
>>> value("CCN1CCN(c2cccc3nc([C@H]4CCC[C@@H](c5ncccc5Cl)N4C)cn23)CC1 [Compound I-151]")
"10 to 30 ×10⁻⁶ cm/s"
>>> value("CN1CCN(c2cccc3nc([C@H]4CCC[C@@H](c5ncccc5OC(F)(F)F)N4C)cn23)CC1 [Compound I-81]")
"10 to 30 ×10⁻⁶ cm/s"
>>> value("Cc1cccnc1[C@@H]1CCC[C@H](c2cn3c(N4CCNC5(CC5)C4)cccc3n2)N1C [Compound I-156]")
"0.1 to 10 ×10⁻⁶ cm/s"

###

EXPERIMENT_SUMMARY: Mouse brain uptake assay (pharmacokinetics and brain penetration after IV administration), 0-1 h, 3 time points
Assay type: in vivo, Male CD1 Mice
CONDITION_DETAILS: male, CD1; Mouse plasma, 3 mg/kg IV, time zero to 1 hr; read-out: AUClast (p)
Short version: AUC(0-t) at least 200 ng·h/mL is true (1), less is false (0).

>>> label("CCN1CCN(c2cccc3nc([C@H]4CCC[C@@H](c5ncccc5C)N4C)c(Br)n23)CC1 [Compound I-19]")
"false (0)"
>>> label("Cc1cccnc1[C@@H]1CCC[C@H](c2nc3cccc(N4CCC(N(C)C)CC4)n3c2Cl)N1C [Compound I-114]")
"true (1)"
>>> label("Cc1cccnc1[C@@H]1CCC[C@H](c2nc3cccc(N4CCN(C(C)C)CC4)n3c2Br)N1C [Compound I-20]")
"true (1)"
>>> label("Cc1cccnc1[C@@H]1CCC[C@H](c2nc3cccc(N4CCN(C)CC4)n3c2Cl)N1 [Compound I-146]")
"true (1)"
>>> label("Cc1cccnc1[C@@H]1CCC[C@H](c2cn3c(N4CCN(C)CC4)cccc3n2)N1 [Compound I-187]")
"true (1)"
>>> label("Cc1cccnc1[C@@H]1CCC[C@H](c2nc3cccc(N4CCN(C)CC4)n3c2Cl)N1C [Compound I-18]")
"false (0)"
>>> label("Cc1cccnc1[C@@H]1CCC[C@H](c2cn3c(-c4cccnc4)cccc3n2)N1C [Compound I-6]")
"true (1)"

###

EXPERIMENT_SUMMARY: in vitro
CONDITION_DETAILS: human, Caco-2, pH 7.4
VALUE_KIND: efflux ratio at 90 min, 10 μM

>>> value("Cc1cccnc1[C@@H]1CCC[C@H](c2cn3c(N4C5CCC4CN(C)C5)cccc3n2)N1")
"0.1 to 10"
>>> value("CCN1CCN(c2cccc3nc([C@H]4CCC[C@@H](c5ncccc5C)N4C)c(Cl)n23)CC1")
"0.1 to 10"
>>> value("Cc1cccnc1[C@@H]1CCC[C@H](c2nc3ccccn3c2COC2CCN(C)CC2)N1C")
"> 30"
>>> value("Cc1cccnc1[C@@H]1CCC[C@H](c2nc3cccc(N4CCN5CCCC5C4)n3c2Cl)N1C (stereo partly shown)")
"0.1 to 10"
>>> value("Cc1cccnc1[C@@H]1CCC[C@H](c2nc3ccccn3c2-c2cccnc2)N1")
"0.1 to 10"
>>> value("CN1CCN(c2cccc3nc([C@H]4CCC[C@@H](c5ncccc5OC(F)(F)F)N4C)cn23)CC1")
"0.1 to 10"
>>> value("CN1CCN(c2cccc3nc([C@H]4CCC[C@@H](c5ncccc5C5CC5)N4)cn23)CC1")
"0.1 to 10"
>>> value("CN1CCN(c2cccc3nc([C@H]4CCC[C@@H](c5ncccc5C5CC5)N4)c(Cl)n23)CC1")
"0.1 to 10"
>>> value("COc1cccnc1[C@@H]1CCC[C@H](c2cn3c(N4CCN(C)CC4)cccc3n2)N1")
"10 to 30"
>>> value("CN1CCN(c2cccc3nc([C@H]4CCC[C@@H](c5ncccc5C5CC5)N4C)cn23)CC1")
"0.1 to 10"
>>> value("COc1cccnc1[C@@H]1CCC[C@H](c2nc3cccc(N4CCN(C)CC4)n3c2Cl)N1")
"0.1 to 10"
>>> value("CCN1CCN(c2cccc3nc([C@H]4CCC[C@@H](c5ncccc5Cl)N4C)cn23)CC1")
"0.1 to 10"
>>> value("COc1cccnc1[C@@H]1CCC[C@H](c2cn3c(N4CCNC5(CC5)C4)cccc3n2)N1")
"> 30"
>>> value("Cc1cccnc1[C@@H]1CCC[C@H](c2nc3cccc(N4CCN(C(C)C)CC4)n3c2CO)N1C")
"10 to 30"
>>> value("Cc1cccnc1[C@@H]1CCC[C@H](c2cn3c(N4CCN(CC(F)(F)F)CC4)cccc3n2)N1C")
"0.1 to 10"
>>> value("Cc1cccnc1[C@@H]1CCC[C@H](c2cn3c(N4CCNC5(CC5)C4)cccc3n2)N1C")
"0.1 to 10"

###

EXPERIMENT_SUMMARY: MTD and pharmacokinetics and brain penetration after PO administration
Type: in vivo, Male C57BL/6 Mice
CONDITION_DETAILS: male, C57BL/6, brain; Mouse, multiple administration, D5-300 mg/kg PO
VALUE_KIND: Kp

>>> value("CN1CCN(c2cccc3nc([C@H]4CCC[C@@H](c5ncccc5Cl)N4)cn23)CC1 (single isomer, unassigned) [Compound I-188]")
5.61

###

TARGET_ENTITY: CXCR-4 transfected U87 cell line (U87.CXCR4) (Homo sapiens (Human), UniProt P61073)
Sequence (P61073 whole entry): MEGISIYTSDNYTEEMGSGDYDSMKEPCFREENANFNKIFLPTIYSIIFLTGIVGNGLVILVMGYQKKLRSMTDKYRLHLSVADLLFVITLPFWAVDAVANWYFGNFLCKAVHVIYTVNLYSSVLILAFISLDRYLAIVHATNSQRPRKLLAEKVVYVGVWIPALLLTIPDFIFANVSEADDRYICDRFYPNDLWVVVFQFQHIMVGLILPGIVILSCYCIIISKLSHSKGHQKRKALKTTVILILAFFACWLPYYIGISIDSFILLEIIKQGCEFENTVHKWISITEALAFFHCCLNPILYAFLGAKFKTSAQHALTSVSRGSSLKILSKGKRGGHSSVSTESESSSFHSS
EXPERIMENT_SUMMARY: Intracellular CXCL-12-induced calcium mobilization assay (FLIPR)
CONDITION_DETAILS: U87.CXCR4 cells, CXCL-12 25-50 ng/mL; read-out: IC50 CXCL-12 Ca2+ flux U87.CXCR4+
pIC50: −log10 of the molar value.
VALUE_KIND: pIC50

>>> value("CC[C@@H](O)c1c([C@H]2CCC[C@@H](c3ncccc3C)N2C)nc2cccc(N3CCN(C)CC3)n12")
"6.00 to 7.00"
>>> value("COc1cccnc1[C@@H]1CCC[C@H](c2nc3cccc(N4CCNC5(CC5)C4)n3c2Cl)N1")
"≤ 6.00"
>>> value("Cc1cccnc1[C@@H]1CCC[C@H](c2cn3c(N4CCN(C)CC4)cccc3n2)N1C")
"7.00 to 11.00"
>>> value("CCN1[C@@H](c2cn3c(N4CCN(C(C)C)CC4)cccc3n2)CCC[C@H]1c1ncccc1C")
"7.00 to 11.00"
>>> value("Cc1cccnc1[C@@H]1CCC[C@H](c2cn3c(N4CCN5CCCC5C4)cccc3n2)N1C (some centres unmarked)")
"7.00 to 11.00"
>>> value("Cc1cccnc1[C@@H]1CCC[C@H](c2cn3c(-c4cncn4C)cccc3n2)N1")
"≤ 6.00"
>>> value("Cc1cccnc1[C@@H]1CCC[C@H](c2nc3ccccn3c2CN2CCOCC2)N1C")
"≤ 6.00"
>>> value("Cc1cccnc1[C@@H]1CCC[C@H](c2nc3cccc(N4CCN(C5CC5)CC4)n3c2Br)N1C")
"6.00 to 7.00"

###

EXPERIMENT_SUMMARY: Mouse brain uptake assay (pharmacokinetics and brain penetration after IV administration), 0-1 h, 3 time points
Format: in vivo, Male CD1 Mice
CONDITION_DETAILS: male, CD1, plasma; Mouse, 3 mg/kg IV, 0-1 h, 3 time points
VALUE_KIND: clearance (mL/min/kg)

>>> value("Cc1cccnc1[C@@H]1CCC[C@H](c2nc3cccc(N4CCC(N(C)C)CC4)n3c2Cl)N1C")
117
>>> value("Cc1cccnc1[C@@H]1CCC[C@H](c2nc3cccc(N4CCN(C)CC4)n3c2Cl)N1C")
245
>>> value("Cc1cccnc1[C@@H]1CCC[C@H](c2nc3cccc(N4CCN(C(C)C)CC4)n3c2Br)N1C")
173
>>> value("CN1CCN(c2cccc3nc([C@H]4CCC[C@@H](c5ncccc5Cl)N4)cn23)CC1 (racemic)")
207

###

EXPERIMENT_SUMMARY: Mouse brain uptake assay (pharmacokinetics and brain penetration after IV administration), 0-1 h, 3 time points
Assay type: in vivo, Male CD1 Mice
CONDITION_DETAILS: male, CD1, plasma; Mouse, 3 mg/kg IV, 0-1 h, 3 time points
VALUE_KIND: clearance (mL/min/kg)

>>> value("CCN1CCN(c2cccc3nc([C@H]4CCC[C@@H](c5ncccc5C)N4C)c(Br)n23)CC1 [Compound I-19]")
223
>>> value("Cc1cccnc1[C@@H]1CCC[C@H](c2cn3c(-c4cccnc4)cccc3n2)N1C [Compound I-6]")
48.3
>>> value("Cc1cccnc1[C@@H]1CCC[C@H](c2nc3cccc(N4CCN(C)CC4)n3c2Cl)N1 [Compound I-146]")
7.22
>>> value("Cc1cccnc1[C@@H]1CCC[C@H](c2cn3c(N4CCN(C)CC4)cccc3n2)N1 [Compound I-187]")
127
